tested on: MDA-N; test: NCI tumour cell line growth inhibition, 48 h
Calls of active or inactive are those of the source. Cut-off read from the data, not from the text of the source: active = GI50 up to about 1.1 µM and inactive = higher.
Log the outcome using a class from label 1 = active, label 0 = inactive

Lookup: What classification did C=C1CC[C@@H]2[C@](C)(COC(=O)CCC(=O)OC)CCC[C@@]2(C)[C@@H]1CCC1=CC(=O)OC1 end up with in this test?
Found: label 0

Lookup: What classification did Clc1ccc(C(SCc2ccccc2)SCc2ccccc2)cc1 end up with in this test?
Found: label 0

Lookup: What classification did c1ccc2c(c1)SCCCSCCSCCCS2 end up with in this test?
Found: label 0

Lookup: What classification did Cc1cc(C)c(S(=O)(=O)N(CCCCN)OCCCN)c(C)c1 end up with in this test?
Found: label 0

Lookup: What classification did COC(=O)/C=C1\C(=O)N(C(C)=O)c2ccc(Br)cc21 end up with in this test?
Found: label 0

Lookup: What classification did O=C1Oc2ccccc2C(=O)/C1=C/N1C(=O)CNC1=S end up with in this test?
Found: label 0

Lookup: What classification did CC(=O)Nc1ccc2cc(C#N)c(=O)[nH]c2n1 end up with in this test?
Found: label 0

Lookup: What classification did CC(C)c1nc(Cl)c(Cl)c(Cl)n1 end up with in this test?
Found: label 0

Lookup: What classification did CC1(C)[C@@H]2CC[C@]1(C)[C@H](OC(=O)/C=C/c1ccccc1)C2 end up with in this test?
Found: label 0

Lookup: What classification did CN1CC[C@]2(c3cccc(O)c3)CC(=O)/C(=C/c3ccc(Cl)c(Cl)c3)[C@@H]1C2 end up with in this test?
Found: label 1

Lookup: What classification did CCOP(=O)(/C=C\n1cc(C)c(=O)[nH]c1=O)OCC end up with in this test?
Found: label 0

Lookup: What classification did N#CSc1[nH]cnc1C(N)=O end up with in this test?
Found: label 0

Lookup: What classification did O=C1Nc2ccccc2/C1=C\c1c(Cl)[nH]c2ccccc12 end up with in this test?
Found: label 1

Lookup: What classification did O=C1CC(C(OCc2ccccc2)C(OCc2ccccc2)C(OCc2ccccc2)C(COCc2ccccc2)OCc2ccccc2)CC(=O)N1 (stereo unspecified) end up with in this test?
Found: label 0

Lookup: What classification did Cc1nn(-c2ccccc2)c(C)c1/C=N/N=C1\S/C(=C\c2ccc(Cl)cc2)C(=O)N1c1ccccc1 end up with in this test?
Found: label 0

Lookup: What classification did N#CCCN(CCCN(CCCN(C(=O)Nc1ccccc1)c1ccccc1)C(=O)Nc1ccccc1)C(=O)Nc1ccccc1 end up with in this test?
Found: label 0
